# System: Plasmodium berghei
# methodSummary: Screen against P. berghei liver stage (PbLuc), transformed with Luciferase, at 10uM
# Format: functional, HepG2
# measurementSetup: tested at 10 uM
Hit rate of the full screen: of about 69,000 compounds, about 8,600 (12%) showed an effect of 50% or more. For the sample, strong results were picked, then their nearest neighbours and some compounds at random.
Catalogue of molecules with associated INHIBITION
measuredProperty: INHIBITION (%)

{"molecule": "CC1N(CC2CC2)C(=O)COC12CCN(C(=O)c1ccno1)CC2 (stereo unspecified)", "measuredProperty": "INHIBITION", "unitText": "%", "numericValue": 11.3}
{"molecule": "CN1CCN(Cc2cccnc2)C(=O)C12CCN(CC1CCOC1)CC2 (stereo unspecified)", "measuredProperty": "INHIBITION", "unitText": "%", "numericValue": 29.4}
{"molecule": "O=S1(=O)c2ccccc2C2(CCN(Cc3ccccc3)C2)N1CC1CC1 (stereo unspecified)", "measuredProperty": "INHIBITION", "unitText": "%", "numericValue": 81.3}
{"molecule": "CC1N(CC2CC2)C(=O)COC12CCN(C(=O)c1cccs1)CC2 (stereo unspecified)", "measuredProperty": "INHIBITION", "unitText": "%", "numericValue": 74.8}
{"molecule": "CCCN1CCC2(C1)c1ccccc1S(=O)(=O)N2Cc1ccccc1 (stereo unspecified)", "measuredProperty": "INHIBITION", "unitText": "%", "numericValue": 68.4}
{"molecule": "COCCN1CCC2(C1)c1ccccc1S(=O)(=O)N2Cc1ccccc1 (stereo unspecified)", "measuredProperty": "INHIBITION", "unitText": "%", "numericValue": 15.3}
